- METHOD SUMMARY: Inhibition of ABCB1 in human HeLa S3 cells assessed as potentiation of doxorubicin-induced cytotoxicity by measuring doxorubicin IC50 at 5 uM measured after 72 hrs by SRB assay (Rvb = 242 +/- 5 nM)
EXPERIMENTAL ENDPOINT: pIC50
Expect pIC50 as a plain number equal to -log10 of the molar concentration.

Can you look up the measured pIC50 of COc1ccc(-c2cc(OC(C)=O)c3c(-c4cccs4)c(NC(=O)c4cccc(F)c4)oc3c2)cc1 for me?
7.06

Endpoint output: pIC50 of COc1ccc(-c2cc(OC(C)=O)c3c(-c4cccs4)c(NC(=O)c4ccccc4C)oc3c2)cc1 . Value?
6.99

Item COc1ccc(-c2cc(OC(C)=O)c3c(-c4cccs4)c(NC(=O)c4ccccc4Cl)oc3c2)cc1 has what recorded pIC50?
7.07

Report pIC50 for COc1ccc(-c2cc(OC(C)=O)c3c(-c4cccs4)c(N(C(C)=O)C(C)=O)oc3c2)cc1 please.
6.99

###

- METHOD SUMMARY: Inhibition of ABCB1 in human HeLa S3 cells assessed as potentiation of paclitaxel-induced cytotoxicity by measuring paclitaxel IC50 at 5 uM measured after 72 hrs by SRB assay (Rvb = 26.50 +/- 4.1 nM)
Give measured pIC50 for each item. Keep answers brief.
Interpret pIC50 as the negative base-10 log of the concentration measured in mol/L.

Consider the compound shown here: COc1ccc(-c2cc(OC(C)=O)c3c(-c4cccs4)c(NC(=O)c4cccc(F)c4)oc3c2)cc1 What is its recorded pIC50?
7.96

Fill blank: measured pIC50 of the compound COc1ccc(-c2cc(OC(C)=O)c3c(-c4cccs4)c(NC(=O)c4ccccc4Cl)oc3c2)cc1 is ____.
8.06

Fill in the blank: the reported pIC50 of COc1ccc(-c2cc(OC(C)=O)c3c(-c4cccs4)c(N(C(C)=O)C(C)=O)oc3c2)cc1 is ____.
7.85

Any idea what pIC50 was measured for COc1ccc(-c2cc(OC(C)=O)c3c(-c4cccs4)c(NC(=O)c4ccccc4C)oc3c2)cc1 ?
8.05

###

- METHOD SUMMARY: Inhibition of ABCB1 in human KB-VIN cells assessed as potentiation of doxorubicin-induced cytotoxicity by measuring doxorubicin IC50 at 2.5 uM measured after 72 hrs by SRB assay (Rvb = 4736 +/- 59 nM)
EXPERIMENTAL ENDPOINT: pIC50
Scale: negative log10 of molar concentration, which is what pIC50 denotes.

Quick one: pIC50 of COc1ccc(-c2cc(OC(C)=O)c3c(-c4cccs4)c(N(C(C)=O)C(C)=O)oc3c2)cc1 ?
5.76

Item under review: COc1ccc(-c2cc(OC(C)=O)c3c(-c4cccs4)c(NC(=O)c4cccc(F)c4)oc3c2)cc1 . Reported pIC50?
5.66

Recorded pIC50 for COc1ccc(-c2cc(OC(C)=O)c3c(-c4cccs4)c(NC(=O)c4ccccc4C)oc3c2)cc1 , please?
5.81

###

- METHOD SUMMARY: Inhibition of ABCB1 in FLp-In-293 cells assessed as potentiation of doxorubicin-induced cytotoxicity by measuring doxorubicin IC50 at 2.5 uM measured after 72 hrs by SRB assay (Rvb = 80 +/- 10 nM)
So I've got a bunch of compounds here, and I need their pIC50 values.
pIC50 here is simply -log10 of the concentration when that concentration is written in mol/L.

Fill in the blank: the reported pIC50 of COc1ccc(-c2cc(OC(C)=O)c3c(-c4cccs4)c(NC(=O)c4cccc(F)c4)oc3c2)cc1 is ____.
7.09

What value of pIC50 has been recorded for this entry: COc1ccc(-c2cc(OC(C)=O)c3c(-c4cccs4)c(N(C(C)=O)C(C)=O)oc3c2)cc1
7.06

Give its pIC50 value. Item: COc1ccc(-c2cc(OC(C)=O)c3c(-c4cccs4)c(NC(=O)c4ccccc4C)oc3c2)cc1
7.05

Fill blank: measured pIC50 of the compound COc1ccc(-c2cc(OC(C)=O)c3c(-c4cccs4)c(NC(=O)c4ccccc4Cl)oc3c2)cc1 is ____.
7.11

###

- METHOD SUMMARY: Inhibition of ABCB1 in human KB-VIN cells assessed as potentiation of vincristine-induced cytotoxicity by measuring vincristine IC50 at 2.5 uM measured after 72 hrs by SRB assay (Rvb = 2867 +/- 142 nM)
EXPERIMENTAL ENDPOINT: IC50 (nM)
The figure you give is taken to be in nM; do not add the unit.

Look up IC50 for this molecule: COc1ccc(-c2cc(OC(C)=O)c3c(-c4cccs4)c(NC(=O)c4ccccc4C)oc3c2)cc1
36

Would you kindly share the measured IC50 for COc1ccc(-c2cc(OC(C)=O)c3c(-c4cccs4)c(NC(=O)c4cccc(F)c4)oc3c2)cc1 ?
60

So what does the record say about IC50 for COc1ccc(-c2cc(OC(C)=O)c3c(-c4cccs4)c(NC(=O)c4ccccc4Cl)oc3c2)cc1 ?
37

May I ask what IC50 has been recorded for COc1ccc(-c2cc(OC(C)=O)c3c(-c4cccs4)c(N(C(C)=O)C(C)=O)oc3c2)cc1 ?
501

###

- METHOD SUMMARY: Inhibition of human full-length ABCB1 expressed in FLp-In-293 cells assessed as potentiation of paclitaxel-induced cytotoxicity by measuring paclitaxel IC50 at 2.5 uM measured after 72 hrs by SRB assay (Rvb = 797 +/- 73 nM)
EXPERIMENTAL ENDPOINT: IC50 (nM)
Return type: number; implicit unit nM.

# input compound: COc1ccc(-c2cc(OC(C)=O)c3c(-c4cccs4)c(N(C(C)=O)C(C)=O)oc3c2)cc1 ; wanted: its IC50
647

Query: IC50; subject: COc1ccc(-c2cc(OC(C)=O)c3c(-c4cccs4)c(NC(=O)c4ccccc4C)oc3c2)cc1
109

Reported IC50 for COc1ccc(-c2cc(OC(C)=O)c3c(-c4cccs4)c(NC(=O)c4cccc(F)c4)oc3c2)cc1 : what is it?
621

Given the entry COc1ccc(-c2cc(OC(C)=O)c3c(-c4cccs4)c(NC(=O)c4ccccc4Cl)oc3c2)cc1 , report its measured IC50.
602

###

- METHOD SUMMARY: Inhibition of ABCB1 in FLp-In-293 cells assessed as potentiation of vincristine-induced cytotoxicity by measuring vincristine IC50 at 2.5 uM measured after 72 hrs by SRB assay (Rvb = 6 +/- 0.2 nM)
EXPERIMENTAL ENDPOINT: pIC50
Bear in mind: pIC50 is minus log10 of a mol/L concentration; give just that figure.

# input compound: COc1ccc(-c2cc(OC(C)=O)c3c(-c4cccs4)c(N(C(C)=O)C(C)=O)oc3c2)cc1 ; wanted: its pIC50
8.35

Consider the compound COc1ccc(-c2cc(OC(C)=O)c3c(-c4cccs4)c(NC(=O)c4cccc(F)c4)oc3c2)cc1 and give its measured pIC50.
8.20

What does the data say about its pIC50? Entry: COc1ccc(-c2cc(OC(C)=O)c3c(-c4cccs4)c(NC(=O)c4ccccc4Cl)oc3c2)cc1
9.06

So what's the measured pIC50 for this one? COc1ccc(-c2cc(OC(C)=O)c3c(-c4cccs4)c(NC(=O)c4ccccc4C)oc3c2)cc1
9.06

###

Provide the reported pIC50 of each item.
- METHOD SUMMARY: Inhibition of ABCB1 in FLp-In-293 cells assessed as potentiation of doxorubicin-induced cytotoxicity by measuring doxorubicin IC50 at 5 uM measured after 72 hrs by SRB assay (Rvb = 80 +/- 10 nM)
Convention used: pIC50 is expressed as -log10 of the molar concentration.

Give its pIC50 value. Item: COc1ccc(-c2cc(OC(C)=O)c3c(-c4cccs4)c(NC(=O)c4ccccc4Cl)oc3c2)cc1
7.14

Look up pIC50 for this compound: COc1ccc(-c2cc(OC(C)=O)c3c(-c4cccs4)c(NC(=O)c4cccc(F)c4)oc3c2)cc1
7.09

Which measured pIC50 value corresponds to COc1ccc(-c2cc(OC(C)=O)c3c(-c4cccs4)c(N(C(C)=O)C(C)=O)oc3c2)cc1 ?
7.09

Quick check: pIC50 of COc1ccc(-c2cc(OC(C)=O)c3c(-c4cccs4)c(NC(=O)c4ccccc4C)oc3c2)cc1 ?
7.09

###

I'd appreciate it if you could supply pIC50 values for the items below.
- METHOD SUMMARY: Inhibition of ABCB1 in human KB-VIN cells assessed as potentiation of paclitaxel-induced cytotoxicity by measuring paclitaxel IC50 at 2.5 uM measured after 72 hrs by SRB assay (Rvb = 1762 +/- 63 nM)
Scale: negative log10 of molar concentration, which is what pIC50 denotes.

What value of pIC50 has been reported for the following molecule? COc1ccc(-c2cc(OC(C)=O)c3c(-c4cccs4)c(N(C(C)=O)C(C)=O)oc3c2)cc1
6.19

Need pIC50 of COc1ccc(-c2cc(OC(C)=O)c3c(-c4cccs4)c(NC(=O)c4ccccc4Cl)oc3c2)cc1 , thanks.
7.10

// lookup pIC50 for COc1ccc(-c2cc(OC(C)=O)c3c(-c4cccs4)c(NC(=O)c4cccc(F)c4)oc3c2)cc1
6.94

Which pIC50 is reported for this molecule? COc1ccc(-c2cc(OC(C)=O)c3c(-c4cccs4)c(NC(=O)c4ccccc4C)oc3c2)cc1
6.46
